Recorded values, source patent US11254663B2.

Reported pEC50 values for a set of compounds
target: FXR (Homo sapiens (Human), UniProt Q96RI1); assay: FXR EC50 (FXR agonist potency reported with each Example); format: cell-based
Sequence (Q96RI1 262-486): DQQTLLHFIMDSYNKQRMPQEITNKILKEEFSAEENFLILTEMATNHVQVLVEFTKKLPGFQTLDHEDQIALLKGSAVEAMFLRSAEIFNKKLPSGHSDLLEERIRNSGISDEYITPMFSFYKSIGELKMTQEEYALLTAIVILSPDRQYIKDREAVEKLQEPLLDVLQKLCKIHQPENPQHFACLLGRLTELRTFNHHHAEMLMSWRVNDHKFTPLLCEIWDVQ
pEC50: −log10 of the molar value.
PROPERTY_LABEL: pEC50

compound="O=C(N(CC12CCC(c3noc(C4(C(F)(F)F)CC4)n3)(CC1)CC2)c1cccc(-c2cn[nH]c2)c1)C12CC(F)(C1)C2 [Example 209]" property_label=pEC50 meas_value=6.82
compound="O=C(N(CC12CCC(c3nc(C4CC4)no3)(CC1)CC2)c1cccc(-c2noc(C(F)(F)F)n2)c1)C12CC(F)(C1)C2 [Example 108]" property_label=pEC50 meas_value=6.84
compound="CC1(c2nc(-c3cccc(N(CC45CCC(c6nc(C7CC7)no6)(CC4)CC5)C(=O)C45CC(F)(C4)C5)c3)no2)COC1 [Example 113]" property_label=pEC50 meas_value=6.92
